Numbers sourced from patent US9981963B2.

target: Recombinant Human NF-kappaB-inducing Kinase (NIK/MAP3K14) (Homo sapiens (Human), UniProt Q99558); assay: Biological Assay A2: inhibition of auto-phosphorylation of recombinant human NIK/MAP3K14 (AlphaScreen); type: biochemical; conditions: 25 microM ATP, 0.2 nM GST-tagged NIK/MAP3K14, 1 h at 25° C., averaged values, read-out: Alpha-Screen IC50
Sequence (Q99558 whole entry): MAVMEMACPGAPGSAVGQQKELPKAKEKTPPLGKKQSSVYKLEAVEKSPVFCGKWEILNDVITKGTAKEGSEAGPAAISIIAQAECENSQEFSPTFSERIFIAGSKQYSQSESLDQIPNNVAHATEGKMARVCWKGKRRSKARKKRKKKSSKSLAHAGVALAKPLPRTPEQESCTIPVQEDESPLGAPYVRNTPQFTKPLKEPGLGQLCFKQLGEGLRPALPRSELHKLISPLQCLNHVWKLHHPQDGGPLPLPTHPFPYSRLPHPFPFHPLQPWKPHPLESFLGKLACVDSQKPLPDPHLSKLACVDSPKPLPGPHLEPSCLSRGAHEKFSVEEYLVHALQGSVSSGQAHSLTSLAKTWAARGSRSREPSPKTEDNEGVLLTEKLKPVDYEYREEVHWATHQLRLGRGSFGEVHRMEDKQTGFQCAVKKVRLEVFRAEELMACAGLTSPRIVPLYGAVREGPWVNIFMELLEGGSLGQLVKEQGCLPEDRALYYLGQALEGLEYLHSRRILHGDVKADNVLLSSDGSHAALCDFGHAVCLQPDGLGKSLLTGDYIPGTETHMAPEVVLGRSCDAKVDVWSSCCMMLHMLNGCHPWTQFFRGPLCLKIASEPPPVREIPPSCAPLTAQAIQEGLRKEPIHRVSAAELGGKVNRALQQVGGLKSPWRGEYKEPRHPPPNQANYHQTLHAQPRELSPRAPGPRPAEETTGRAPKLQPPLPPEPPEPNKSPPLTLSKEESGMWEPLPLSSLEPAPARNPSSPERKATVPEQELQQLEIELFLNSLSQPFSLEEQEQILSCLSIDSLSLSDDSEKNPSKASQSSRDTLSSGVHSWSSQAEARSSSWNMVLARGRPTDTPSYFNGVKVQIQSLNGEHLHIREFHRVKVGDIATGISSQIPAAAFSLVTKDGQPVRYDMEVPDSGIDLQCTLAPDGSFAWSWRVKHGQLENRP
Outcome measure: log10(IC50) (log10 of the value in nM)
Please be aware that the numbers have been log10-transformed from IC50 in nM.

// known answers, use as guide
CC(C)(O)C#Cc1cc2c(-c3cn[nH]c3)cn(CCCO)c2cn1 [Compound 5] :: 1.15
[2H]c1n[nH]c([2H])c1-c1cn(CC)c2cnc(C#CC(C)(C)O)cc12 [Compound 40] :: 1.58
CC(C)(O)Cn1cc(-c2cn[nH]c2)c2cc(C#CC(C)(O)c3nccs3)ncc21 (centres unmarked) [Compound 15] :: 1.63
OC1(C#Cc2cc3c(-c4cn[nH]c4)c[nH]c3cn2)CCCC1 [Compound 6] :: 1.41

Lookup: So what does the record say about log10(IC50) for CC(C)(O)C#Cc1cc2c(-c3cn[nH]c3)cn(Cc3ccccc3)c2cn1 [Compound 22] ?
Found: 2.37

----------
Answer each item with its documented EC50.
system: JJN-3 cells; test: Biological Assay C: antiproliferative activity on JJN-3 cells (CellTiter-Glo); type: cell-based; conditions: Homo sapiens, 72 hr of treatment, averaged values
Numbers only, in nM.

// known answers, use as guide
CC(C)(O)C#Cc1cc2c(-c3c[nH]nc3C#N)cn(CC(C)(C)O)c2cn1 :: 5670
CCn1cc(-c2cn[nH]c2)c2cc(C#CC(C)O)ncc21 (stereo not shown) :: 530
[2H]c1n[nH]c([2H])c1-c1cn(CC)c2cnc(C#CC(C)(C)O)cc12 :: 547

Count: 3. Required value per item: EC50.
1. CC(C)CS(=O)(=O)n1cc(-c2cn[nH]c2)c2cc(C#CC(C)(C)O)ncc21
2. [2H]c1n[nH]c([2H])c1-c1cn(C2CCN(C)CC2)c2c(C)nc(C#CC(O)(C([2H])([2H])[2H])C([2H])([2H])[2H])cc12
3. OCCn1cc(-c2cn[nH]c2)c2cc(C#CC3(O)CCCC3)ncc21

Found:
[3870, 391, 23800]

Lookup: So what does the record say about EC50 for "[2H]c1n[nH]c([2H])c1-c1cn([C@H]2CCN(CCC(F)(F)F)C2)c2cnc(C#CC(O)(C([2H])([2H])[2H])C([2H])([2H])[2H])cc12" ?
Found: 2220

----------
tested on: JJN-3 cells; assay: Biological Assay C: antiproliferative activity on JJN-3 cells (CellTiter-Glo); type: cell-based; settings: Homo sapiens, 72 hr of treatment, averaged values
Outcome measure: EC50 (nM)
Give bare numbers, in nM.

// known answers, use as guide
CCn1cc(-c2c[nH]nc2C#N)c2cc(C#CC(C)(C)O)ncc21 :: 2380
CC(C)(O)C#Cc1cc2c(-c3cn[nH]c3)cn(C3CCN(CC(F)(F)F)CC3)c2cn1 :: 820
CC(C)(O)C#Cc1cc2c(-c3cn[nH]c3)cn(CCCO)c2cn1 :: 1200
CC(C)(O)C#Cc1cc2c(-c3cn[nH]c3)cn(CC(F)(F)F)c2cn1 :: 1530
Cn1cc(-c2cn[nH]c2)c2cc(C#CC(C)(C)O)ncc21 :: 1150
CCn1cc(-c2cn[nH]c2)c2cc(C#CC3(O)CCCC3)ncc21 :: 1210

Count: 3. Required value per item: EC50.
1. COCCn1cc(-c2cn[nH]c2)c2cc(C#CC(C)(C)O)ncc21
2. CN1CC(n2cc(-c3cn[nH]c3)c3cc(C#CC(C)(C)O)ncc32)C1
3. CC(C)(O)C#Cc1cc2c(-c3cn[nH]c3)cn(S(C)(=O)=O)c2cn1

Found:
[4050, 3660, 1900]

----------
target: Recombinant Human NF-kappaB-inducing Kinase (NIK/MAP3K14) (Homo sapiens (Human), UniProt Q99558); assay: Biological Assay A: inhibition of recombinant human NIK/MAP3K14 activity (MSD, MBP substrate); details: 25 μM ATP, 10 nM NIK/MAP3K14, 1 h at 25° C.; averaged over all measurements on all batches; read-out: Biochemical (MSD MBP) IC50
Answer each item with its documented IC50.
Reply with the number and its unit after it.

CC(C)(O)C#Cc1cc2c(-c3c[nH]nc3C#N)cn(CC(C)(C)O)c2cn1 [Compound 32] :: 68 nM
COCCCn1cc(-c2cn[nH]c2)c2cc(C#CC(C)(C)O)ncc21 [Compound 18] :: 45 nM
CC(C)(O)C#Cc1cc2c(-c3cn[nH]c3)c[nH]c2cn1 [Compound 1] :: 60 nM
CC(C)(O)C#Cc1cc2c(-c3cn[nH]c3)cn(CCC(C)(C)O)c2cn1 [Compound 20] :: 29 nM
CC(C)n1cc(-c2cn[nH]c2)c2cc(C#CC(C)(C)O)ncc21 [Compound 11] :: 6 nM
CC(C)(O)C#Cc1cc2c(-c3cn[nH]c3)cn(CC3COC3)c2cn1 [Compound 17] :: 88 nM

Count: 3. Required value per item: IC50.
1. COCCn1cc(-c2cn[nH]c2)c2cc(C#CC(C)(C)O)ncc21 [Compound 16]
2. CCCC(C)n1cc(-c2cn[nH]c2)c2cc(C#CC(C)(C)O)ncc21 (stereo not drawn) [Compound 23]
3. CCn1cc(-c2c[nH]nc2N)c2cc(C#CC(C)(C)O)ncc21 [Compound 3]

Found:
1: 92 nM; 2: 57 nM; 3: 58 nM

----------
Answer each item with its documented EC50.
System: JJN-3 cells
Experiment: Biological Assay C: antiproliferative activity on JJN-3 cells (CellTiter-Glo)
Assay type: cell-based
Conditions: Homo sapiens, 72 hr of treatment, averaged values
Procedure: Determination of Antiproliferative Activity on LP-1, L-363 and JJN-3 Cells All compounds tested were dissolved in DMSO and further dilutions were made in culture medium. Final DMSO concentration was 0.3% (v/v) in cell proliferation assays. Viability was assessed using CellTiter-Glo cell viability assay kit (Promega). […] Luminescence was measured on a HTS Topcount (Perkin Elmer). […]
Answers are plain numbers, in nM.

// known answers, use as guide
CCn1cc(-c2cn[nH]c2)c2cc(C#CC(C)(O)c3cc(C)on3)ncc21 (centres unmarked) :: 621
CN1CCC(n2cc(-c3cn[nH]c3)c3cc(C#CC(C)(C)O)ncc32)CC1 :: 704
CN1CCC(n2cc(-c3c[nH]nc3Cl)c3cc(C#CC(C)(C)O)ncc32)CC1 :: 1310
CCn1cc(-c2c[nH]nc2C)c2cc(C#CC(C)(C)O)ncc21 :: 1690

Here's the next entry for you.
Lookup: So what does the record say about EC50 for "COCCCn1cc(-c2cn[nH]c2)c2cc(C#CC(C)(C)O)ncc21" ?
Found: 1870

----------
Test system: JJN-3 cells
Experiment: Biological Assay C: antiproliferative activity on JJN-3 cells (CellTiter-Glo)
Type: cell-based
Settings: Homo sapiens, 72 hr of treatment, averaged values
Method: Determination of Antiproliferative Activity on LP-1, L-363 and JJN-3 Cells All compounds tested were dissolved in DMSO and further dilutions were made in culture medium. Final DMSO concentration was 0.3% (v/v) in cell proliferation assays. Viability was assessed using CellTiter-Glo cell viability assay kit (Promega). […] Luminescence was measured on a HTS Topcount (Perkin Elmer). […]
Response field label: string, one of met (EC50 strictly below 3 µM) or not met.

Cn1cc(-c2cn[nH]c2)c2cc(C#CC3(O)CCCC3)ncc21 [Compound 8] :: not met
CCC(CC)n1cc(-c2cn[nH]c2)c2cc(C#CC(C)(C)O)ncc21 [Compound 24] :: met
CC(C)(O)C#Cc1cc2c(-c3cn[nH]c3)c[nH]c2cn1 [Compound 1] :: not met

Lookup: Field: below-cutoff. Rule: recorded EC50 strictly less than 3 µM. Subject: CC(C)Cn1cc(-c2cn[nH]c2)c2cc(C#CC(C)(C)O)ncc21 [Compound 21]
Found: met

Lookup: Field: below-cutoff. Rule: recorded EC50 strictly less than 3 µM. Subject: CCn1cc(-c2c[nH]nc2NC)c2cc(C#CC(C)(C)O)ncc21 [Compound 37]
Found: not met

----------
Molecular target: Recombinant Human NF-kappaB-inducing Kinase (NIK/MAP3K14) (Homo sapiens (Human), UniProt Q99558)
Test: Biological Assay A: inhibition of recombinant human NIK/MAP3K14 activity (MSD, MBP substrate)
Conditions: 25 μM ATP, 10 nM NIK/MAP3K14, 1 h at 25° C.; averaged over all measurements on all batches; read-out: Biochemical (MSD MBP) IC50
Procedure: Inhibition of Recombinant Human NF-kappaB-inducing Kinase (NIK/MAP3K14) Activity Assay buffer was 50 mM Tris pH 7.5 containing 1 mM EGTA (ethylene glycol tetraacetic acid), 1 mM DTT (dithiothreitol), 0.1 mM Na3VO4, 5 mM MgCl2, 0.01% Tween® 20. […] Incubations were carried out for 1 h at 25° C. and were followed by washing and sequential incubation with rabbit anti-phospho-MBP and anti-rabbit Ig Sulfotag antibody before reading bound Sulfotag on a Mesoscale Discovery. […]
Response field label: string, one of rule met (IC50 strictly below 30 nM) or rule not met.

Cn1cc(-c2cn[nH]c2)c2cc(C#CC(C)(C)O)ncc21 :: rule met
CC(C)(O)Cn1cc(-c2cn[nH]c2)c2cc(C#CC(C)(O)c3nccs3)ncc21 (centres unmarked) :: rule met
CC(C)(O)C#Cc1cc2c(-c3cn[nH]c3)cn(Cc3ccccc3)c2cn1 :: rule not met
CCn1cc(-c2cn[nH]c2)c2cc(C#CC3(O)CCCC3)ncc21 :: rule met
CCn1cc(-c2c[nH]nc2C#N)c2cc(C#CC(C)(C)O)ncc21 :: rule met
CC(C)Cn1cc(-c2cn[nH]c2)c2cc(C#CC(C)(C)O)ncc21 :: rule not met
CC(C)(O)C#Cc1cc2c(-c3cn[nH]c3)cn(CC(C)(C)O)c2cn1 :: rule met
CC(C)(O)C#Cc1cc2c(-c3cn[nH]c3)cn(CC3CCOC3)c2cn1 (centres unmarked) :: rule not met
CN1CC(n2cc(-c3cn[nH]c3)c3cc(C#CC(C)(C)O)ncc32)C1 :: rule not met
OCCn1cc(-c2cn[nH]c2)c2cc(C#CC3(O)CCCC3)ncc21 :: rule met

For the next question, use this molecule.
Lookup: Field: below-cutoff. Rule: recorded IC50 strictly less than 30 nM. Subject: "CCn1cc(-c2cn[nH]c2)c2cc(C#CC(C)(C)O)ncc21"
Found: rule met
